Assay: Plasma pharmacokinetics of SU5416 and metabolites in Phase I patients (HPLC UV)
Format: in vivo, human
Details: human, plasma, iv, 110 mg m^−2, individual patients, twice weekly i.v. infusion, dose 110 mg m^−2, cycle 1inj8; read-out: CL (observed) (converted)
observationType: clearance (mL/min)
Give bare numbers, in mL/min.

Task: # input compound: `Cc1cc(C)c(/C=C2\C(=O)Nc3ccccc32)[nH]1` ; wanted: its clearance
Output: 1400

----------
Experiment: Plasma pharmacokinetics of SU5416 and metabolites in Phase I patients (HPLC UV)
Assay type: in vivo, human
Settings: human, plasma, iv, 65 mg m^−2, individual patients, twice weekly i.v. infusion, dose 65 mg m^−2, cycle 1inj2; read-out: Cmax
observationType: Cmax
Remember to put the unit after the number in your answer.

Task: Need Cmax, item Cc1cc(C)c(/C=C2\C(=O)Nc3ccccc32)[nH]1 [SU5416]
Output: 4370 ng/mL
